- tested system: Bcl-2-like protein 10 (Homo sapiens)
- experiment notes: inhibitors of Bim-Bcl-B binding, primary screen, biochemical, multiplexed, human Bcl-2 family (AID 951);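 further: 0% = tracer peptide without compound and 100% = reference inhibitor peptide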
- experimental conditions: bead-based flow cytometry, Bim peptide-Bcl-B binding; at 10 µM; active compounds read high
In all, about 190,000 compounds went through this assay and about 140 (0.074%) were called active. Many of the other results were omitted from the sample, so actives are more common in it than they were.
measurement name: inhibition (%)

compound | measurement name | reported result
NS(=O)(=O)c1ccc(NC(=S)Nc2ccc(Br)c(Cl)c2)cc1 | inhibition | -9
COc1ccc(C(=O)Nc2sc(C)c(C)c2CN2CCOCC2)cc1 | inhibition | -7
Cc1ccccc1C(=O)OC1OC(=O)C(Cl)=C1Nc1ccccc1 (stereo unspecified) | inhibition | -2
O=C(Nc1ccc2c(c1)CCC2)c1ccc(Br)s1 | inhibition | 0
Cc1ccc(COc2ccc(C(=O)NN)cc2)cc1 | inhibition | -3
CC(C)(C)C(=O)NC(NC(=S)Nc1ccc(S(N)(=O)=O)cc1)C(Cl)(Cl)Cl (stereo unspecified) | inhibition | 49
